- system under test: T1, recombinant rat MASP1 active protease (amino acids 302-704, C-terminal His Tag) (rat, UniProt Q8CHN8 302-704)
- T1 sequence: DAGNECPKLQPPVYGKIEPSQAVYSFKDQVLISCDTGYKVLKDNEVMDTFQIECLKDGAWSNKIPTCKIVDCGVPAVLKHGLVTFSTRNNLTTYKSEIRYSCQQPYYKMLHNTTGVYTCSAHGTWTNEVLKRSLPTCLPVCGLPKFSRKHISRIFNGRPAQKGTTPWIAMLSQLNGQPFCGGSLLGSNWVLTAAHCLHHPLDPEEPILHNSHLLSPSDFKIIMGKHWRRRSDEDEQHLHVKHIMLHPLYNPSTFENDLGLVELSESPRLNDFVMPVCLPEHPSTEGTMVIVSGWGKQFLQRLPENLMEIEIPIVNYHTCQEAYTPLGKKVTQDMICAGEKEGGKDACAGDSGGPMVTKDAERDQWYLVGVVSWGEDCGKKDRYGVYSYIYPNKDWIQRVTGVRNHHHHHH
- assay explanation: cell-based or functional assay
Numbered stars: 1 amine (or outer) side, 2 acyl side, 3 side chain; on linkers, the order of the positions; unused ones are H or OH. Bridge positions count the residues as written; N and C are the ends. Square brackets hold non-standard residues; d marks the D form. Ends that are not written are not given here. X9 = (S)‑3‑(1-Pyrrolidine-2-yl)‑propionic acid, O=C(CC[C@@H]1CCCN1[*:1])[*:2]; Pro(4-spirocPr) = O=C(O)[C@@H]1CC2(CC2)CN1; Oic = O=C(O)[C@@H]1C[C@@H]2CCCC[C@@H]2N1; tBuAla = CC(C)(C)C[C@H](N)C(=O)O; Pen = CC(C)(S)[C@H](N)C(=O)O; Tranexamic = tranexamic acid; Sar = CNCC(=O)O

# binder, rat MASP1 IC50 [nM]
records = [
    ("AICSRSLP[Pro(4-spirocPr)]I[Pen]IPD-OH (disulfide 3-11; N-terminus assumed; SMILES CC[C@H](C)[C@H](NC(=O)[C@H](C)N)C(=O)N[C@H]1CSSC(C)(C)[C@@H](C(=O)N[C@H](C(=O)N2CCC[C@H]2C(=O)N[C@@H](CC(=O)O)C(=O)O)[C@@H](C)CC)NC(=O)[C@H]([C@@H](C)CC)NC(=O)[C@@H]2CC3(CC3)CN2C(=O)[C@@H]2CCCN2C(=O)[C@H](CC(C)C)NC(=O)[C@H](CO)NC(=O)[C@H](CCCNC(=N)N)NC(=O)[C@H](CO)NC1=O) [Example 36: AIC+SRSLP-((6S)-5-Azaspiro[2.4]heptane-6-carboxylic acid)-I-(Pen)+IPD-OH]", 24),
    ("[Sar]ICSRSLP[Oic]I[Pen]IP[X9]-OH (disulfide 3-11; N-terminus assumed; SMILES CC[C@H](C)[C@H](NC(=O)CNC)C(=O)N[C@H]1CSSC(C)(C)[C@@H](C(=O)N[C@H](C(=O)N2CCC[C@H]2C(=O)N2CCC[C@H]2CCC(=O)O)[C@@H](C)CC)NC(=O)[C@H]([C@@H](C)CC)NC(=O)[C@@H]2C[C@@H]3CCCC[C@@H]3N2C(=O)[C@@H]2CCCN2C(=O)[C@H](CC(C)C)NC(=O)[C@H](CO)NC(=O)[C@H](CCCNC(=N)N)NC(=O)[C@H](CO)NC1=O) [Example 453: ((N-Me)G)-IC+SRSLP-(Oic)-I-(Pen)+IP-((S)-3-(1-Pyrrolidine-2-yl)-propionic acid)-OH]", 38),
    ("AICSRS[tBuAla]PPI[Pen]IP[Tranexamic]-NH2 (disulfide 3-11) [Example 171: AIC+SRS-((tBu)A)-PPI-(Pen)+IP-(Tranexamic)-NH2]", 42),
]
